Origin of measurements: ChEMBL document CHEMBL4118140

- assay_info: Cytotoxicity against mouse RAW264.7 cells assessed as cell viability at 10 uM after 24 hrs by CellTiter96 AQueous one solution cell proliferation assay (reference value: 100 +/- 2.4%)
- Assay type: cell-based
- experimental_parameters: read-out: Activity
quantity: viability at 24 h, 10 µM (%)
Could you give me the number in %? Just the number is fine.

Example results:
compound	quantity	result_units	result_value
COc1cc2c(c(O)c1OC)C(=O)C(Cc1ccccc1O)CO2 (racemic)	viability at 24 h, 10 µM	%	96.7
COc1cc(OC)c2c(c1)OC/C(=C\c1ccccc1O)C2=O	viability at 24 h, 10 µM	%	114
COc1cc(O)c2c(c1)OCC(Cc1ccccc1O)C2=O (centres undefined)	viability at 24 h, 10 µM	%	81.1
COc1cc(OC)c2c(c1)OCC(Cc1ccccc1O)C2=O (racemic)	viability at 24 h, 10 µM	%	165
COc1cc(O)c2c(c1)OC/C(=C\c1ccccc1O)C2=O	viability at 24 h, 10 µM	%	97
COc1ccc2c(c1)OC/C(=C\c1ccccc1O)C2=O	viability at 24 h, 10 µM	%	97.7

Query (compound): COc1cc2c(c(OC)c1OC)C(=O)C(Cc1ccccc1O)CO2 (racemic) ; field requested: viability at 24 h, 10 µM
87.2

Query (compound): COc1cc2c(c(OC)c1OC)C(=O)/C(=C/c1ccccc1O)CO2 ; field requested: viability at 24 h, 10 µM
93.4

Query (compound): COc1ccc2c(c1)OCC(Cc1ccccc1O)C2=O (centres undefined) ; field requested: viability at 24 h, 10 µM
118

* * *

Measured inhibition at 1 µM accompanies every entry in the list below.
- System: RAW264.7
- assay_info: Antiinflammatory activity in mouse RAW264.7 cells assessed as reduction in LPS-induced NO production at 1 uM after 18 hrs by Griess assay relative to control
- Format: functional
- experimental_parameters: RAW264.7, 18 h
Could you give me the number in %? Just the number is fine.

Example results:
molecule	inhibition at 1 µM / %
COc1cc2c(c(OC)c1OC)C(=O)C(Cc1ccccc1O)CO2 (racemic)	-24.6
COc1cc2c(c(OC)c1OC)C(=O)/C(=C/c1ccccc1O)CO2	16.2
COc1cc(O)c2c(c1)OCC(Cc1ccccc1O)C2=O (stereo not given)	2.8
COc1ccc2c(c1)OCC(Cc1ccccc1O)C2=O (stereo not given)	9.2
COc1ccc2c(c1)OC/C(=C\c1ccccc1O)C2=O	28.4
COc1cc(O)c2c(c1)OC/C(=C\c1ccccc1O)C2=O	21.1

Query (molecule): CNC(=N)NCCC[C@H](N)C(=O)O ; field requested: inhibition at 1 µM
-12.5

Query (molecule): COc1cc(OC)c2c(c1)OCC(Cc1ccccc1O)C2=O (racemic) ; field requested: inhibition at 1 µM
-2.8

Query (molecule): COc1cc(OC)c2c(c1)OC/C(=C\c1ccccc1O)C2=O ; field requested: inhibition at 1 µM
38.5

Query (molecule): COc1cc2c(c(O)c1OC)C(=O)C(Cc1ccccc1O)CO2 (racemic) ; field requested: inhibition at 1 µM
-11.8

* * *

- assay_info: Cytotoxicity against mouse RAW264.7 cells assessed as cell viability at 50 uM after 24 hrs by CellTiter96 AQueous one solution cell proliferation assay (reference value: 100 +/- 2.4%)
- Assay type: cell-based
- experimental_parameters: read-out: Activity
quantity: viability at 24 h, 50 µM (%)
Could you give me the number in %? Just the number is fine.

Query (compound): COc1cc(OC)c2c(c1)OC/C(=C\c1ccccc1O)C2=O ; field requested: viability at 24 h, 50 µM
13.3

Query (compound): COc1ccc2c(c1)OC/C(=C\c1ccccc1O)C2=O ; field requested: viability at 24 h, 50 µM
11

Query (compound): COc1cc2c(c(OC)c1OC)C(=O)/C(=C/c1ccccc1O)CO2 ; field requested: viability at 24 h, 50 µM
11.8
